- Tested on: NOMO1
- Test Method Notes: AUC of viability dose-response curve (% viability x log10 dose units); higher = less sensitive
- Assay Context: RPMI 5 mM glucose + 10% dialyzed FBS; 48 h

>  <Smiles Code>
C[C@]12CC[C@H]3[C@@H](CCC/4=C/C(=O)CC[C@]34C)[C@@H]1CC[C@@H]2OC(=O)CCC5CCCC5

>  <Tested Target>
NOMO1

>  <AUC of viability dose-response curve>
464

$$$$
>  <Smiles Code>
N[S+](=O)([O-])OC[C@@H]1C[C@@H](n2ccc3c(N[C@H]4CCc5ccccc54)ncnc32)C[C@@H]1O

>  <Tested Target>
NOMO1

>  <AUC of viability dose-response curve>
313

$$$$
>  <Smiles Code>
CN(C)CCN1C(=O)c2cccc3cc(N)cc(c23)C1=O

>  <Tested Target>
NOMO1

>  <AUC of viability dose-response curve>
435

$$$$
>  <Smiles Code>
CC(C)(O)c1cc2nc(-c3cnc(N)nc3)nc(N3CCOCC3)c2s1

>  <Tested Target>
NOMO1

>  <AUC of viability dose-response curve>
334

$$$$

====

- Test system: P12-Ichikawa
- Test Method Notes: cell viability relative to DMSO control; higher = less cytotoxic
- Assay Context: RPMI 5 mM glucose + 10% FBS; 48 h; 0.0211 µM
Each entry below lists one item and its recorded cell viability value.
Reported Metric: cell viability (%)

>  <Molecule>
C#CCN[C@@H]1CCc2ccccc21.CS(=O)(=O)O

>  <Unit Spec>
%

>  <Reported Value>
95.2

$$$$
>  <Molecule>
CON(C)C(=O)N1/N=C(S[C@@]1(CCCN)C2=CC=CC=C2)/C3=CC(=CC=C3F)F

>  <Unit Spec>
%

>  <Reported Value>
61.1

$$$$
>  <Molecule>
CN(C)CCN1C(=O)c2cccc3cc(N)cc(c23)C1=O

>  <Unit Spec>
%

>  <Reported Value>
113

$$$$
>  <Molecule>
CC(C)Cc1ccc(C(C)C(=O)O)cc1 (centres undefined)

>  <Unit Spec>
%

>  <Reported Value>
85

$$$$
>  <Molecule>
C[S+](=O)([O-])c1ccc(Oc2cc(F)cc(C#N)c2)c2c1[C@H](O)C(F)(F)C2

>  <Unit Spec>
%

>  <Reported Value>
117

$$$$
>  <Molecule>
CCOc1cc(CC(=O)N[C@@H](CC(C)C)c2ccccc2N2CCCCC2)ccc1C(=O)O

>  <Unit Spec>
%

>  <Reported Value>
137

$$$$
>  <Molecule>
COc1ncc(-c2ccc3c(Nc4cc(Oc5cc(F)cc(F)c5)cc(C(=O)O)c4)c([S+](=O)([O-])NC4CC4)cnc3c2)c(OC)n1

>  <Unit Spec>
%

>  <Reported Value>
93.1

$$$$
>  <Molecule>
Cc1cccc(/C=N/Nc2cc(N3CCOCC3)nc(OCCc3ccccn3)n2)c1

>  <Unit Spec>
%

>  <Reported Value>
99

$$$$
>  <Molecule>
Cc1ncc([N+](=O)[O-])n1CC(C)O (centres undefined)

>  <Unit Spec>
%

>  <Reported Value>
104

$$$$

====

cell viability values for the compounds below.
- System: P12-Ichikawa
- Test Method Notes: cell viability relative to DMSO control; higher = less cytotoxic
- Assay Context: RPMI 5 mM glucose + 10% dialyzed FBS; 48 h; 1.71 µM
Reported Metric: cell viability (%)

>  <Compound>
CC[C@]1(O)C[C@@H]2CN(CCc3c([nH]c4ccccc34)[C@@](C(=O)OC)(c3cc4c(cc3OC)N(C)[C@H]3[C@@](O)(C(N)=O)[C@H](O)[C@]5(CC)C=CCN6CC[C@]43[C@@H]65)C2)C1

>  <Reported Value>
29.1

$$$$
>  <Compound>
Cc1noc(-c2ccc(CSCCC(=O)O)cc2)c1NC(=O)OC(C)c1ccccc1Cl (stereo unspecified)

>  <Reported Value>
89.1

$$$$
>  <Compound>
CCN1CCCC1CNC(=O)c1cc([S+](N)(=O)[O-])ccc1OC (stereo unspecified)

>  <Reported Value>
126

$$$$
>  <Compound>
NC(=O)NO

>  <Reported Value>
87.2

$$$$
>  <Compound>
COc1ncc(-c2ccc3c(Nc4cc(Oc5cc(F)cc(F)c5)cc(C(=O)O)c4)c([S+](=O)([O-])NC4CC4)cnc3c2)c(OC)n1

>  <Reported Value>
88.4

$$$$
>  <Compound>
c1ccc(-c2oc3ncnc(NC[C@@H]4CCCO4)c3c2-c2ccccc2)cc1

>  <Reported Value>
115

$$$$
>  <Compound>
OC[C@H]1O[C@@H]2[C@@H](OC\3=N\C(=N)\C=C/[N@@]23)[C@@H]1O

>  <Reported Value>
17

$$$$
>  <Compound>
O.O.CCN1CCN(C(=O)N[C@H](C(=O)N[C@H]2[C@@H]3SC\C(=C(/N3C2=O)C(O)=O)CSC4=NN=N[N]4C)C5=CC=C(O)C=C5)C(=O)C1=O

>  <Reported Value>
97.4

$$$$
>  <Compound>
OC(CN1CCN(c2cccc(Cl)c2)CC1)C(c1ccccc1)c1ccccc1 (stereo unspecified)

>  <Reported Value>
4.96

$$$$
>  <Compound>
CC(C)(C)[C@H](NC(=O)c1ccc(N)c(Cl)c1)C(=O)N1CCC[C@H]1C(=O)N[C@H](C#N)CC(=O)O

>  <Reported Value>
127

$$$$
>  <Compound>
OC[C@H]1O[C@@H](Oc2cc(O)cc(/C=C/c3ccc(O)cc3)c2)[C@H](O)[C@@H](O)[C@@H]1O

>  <Reported Value>
112

$$$$
>  <Compound>
COc1cccc2c1[C@]13CCN(CC4CC4)[C@H](C2)[C@]1(OC)CCC(=O)C3

>  <Reported Value>
118

$$$$
>  <Compound>
Cc1nc(Nc2n[nH]c3c2CN(C(=O)N[C@H](CN(C)C)c2ccccc2)C3(C)C)c2sccc2n1

>  <Reported Value>
40.6

$$$$
>  <Compound>
NC/1=N/C(=O)N(/C=N1)[C@@H]2O[C@H](CO)[C@@H](O)[C@H]2O

>  <Reported Value>
104

$$$$
>  <Compound>
COC1=CC=C(C=C1O)C/2=C/C(=O)C3=C(O2)C=C(O[C@@H]4O[C@H](CO[C@@H]5O[C@@H](C)[C@H](O)[C@@H](O)[C@H]5O)[C@@H](O)[C@H](O)[C@H]4O)C=C3O

>  <Reported Value>
130

$$$$
>  <Compound>
COc1cccc2c1CCCC2CCCN1CCN(C2CCCCC2)CC1 (stereo unspecified)

>  <Reported Value>
103

$$$$
